Values from the RNAGym collection of RNA variant scans (doi:10.1073/pnas.2313332121)

Can you tell me polymerase ribozyme fitness (log ratio) for the items I'm about to list?
B1: TPR t1 (parent)
chain: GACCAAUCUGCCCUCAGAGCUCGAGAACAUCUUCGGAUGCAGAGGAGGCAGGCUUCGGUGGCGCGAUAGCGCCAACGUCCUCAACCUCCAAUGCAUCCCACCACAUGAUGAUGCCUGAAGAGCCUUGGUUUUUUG

Variants of: B1
Experiment: polymerase ribozyme fitness, log enrichment relative to wild type (log ratio); higher = more active; in vitro selection for triplet polymerase activity

Item under review: GACCAAUCUGCGCUCAGUGCUCGAGAACAUCUUCGGAUACAGAGGAGGCAGACUUCGGUAGCGCGAUAGCGCCAACGUCCUUAACCUCCAAUGCAUCCCACCACAGGAUGAUGCCUGAAAAGCCUUGGUUUUUUG [C12G A18U G39A G52A G60A C82U U106G G120A] . Reported polymerase ribozyme fitness (log ratio)?
-3.95

Item under review: GACCAAUCUGCCCUCAGCGCUCGAGAACAUCUUCGGAUGCAUAGGAGGCAGGCCUCGGUGGCGCGAUAGCGCCAACGUCCUGAACCUCCAAUGCAUCCCACCACAUGAUGAUGCCUGAAGAGCCUUGGUUUUUUG [A18C G42U U54C C82G] . Reported polymerase ribozyme fitness (log ratio)?
-2.51

Item under review: GACCAAUCUGCCCUCAGAGCUCGAGAACAUCUUCGGAUGCAGAGGAGGCAGGCUUCGGUGGUGCGGUAGCGCCAACGUCCUCAACCUCCAAUGCAUCCCUCCACAUGAUGAUGCCUGAAGAGCCUUGGUUUUUUG [C62U A66G A100U] . Reported polymerase ribozyme fitness (log ratio)?
-2.66

Item under review: GACCAAUCUGCCCUCAGAUCUCGAGAACAUCUUCGGAUGCAGAGGAGGUAGGUUUCGGUUGCGCGAUAGCGCCAACGUCCUCAACCUCCAAUGCAUCCCACCACAUGAUGAUGCCUGAAGAGUCUUGGUUUUUUG [G19U C49U C53U G60U C123U] . Reported polymerase ribozyme fitness (log ratio)?
-5.84

Item under review: GACCAAUCUGCCCUCAGAGCUCGAGAACAUCUUCGGAUGCAGAGGAGGCAGGCUUCGGUGGCGCGAUAGCACCAACGUCCUCAACCUCCAAUGCAUCCCACCACAUGAUAAUGCUUGAAGAGCCUUGGUUUUUUG [G71A G110A C115U] . Reported polymerase ribozyme fitness (log ratio)?
-5.43

Item under review: GACCAAUCUGCCCUCAGAGCUCGAGAACAUCUUCGGAUGCAGAGGAGGCAGGCUUGGGUGGCGCGAUAGCGCCAACGUCCUCAACCUCCAAUGGAUCCCACCACAUGAUGAAGCCUGAAGAGCCUUGGUUUUUUG [C56G C94G U112A] . Reported polymerase ribozyme fitness (log ratio)?
-0.000426

Item under review: GACCAAUCUGCCCUCAGAGCUCGAGAACAUCUACGGAUGCAGAGGAGGCAGGCUUCGGUGGCACGAUAGCGCCAACGUCCUCAACCUCCAAUGCAUCCCACCACAUGAUGAUGCCUGAAGAGCCUUGGUUUUUUG [U33A G63A] . Reported polymerase ribozyme fitness (log ratio)?
-6.46

Item under review: GACCAAUCUGCCCUCAGAGCUCGAGAACAUCUUCGGAUGCAGAGGAGGCAGGCUUCGGUAGCGCGAUAGCGCCAACCUCCUCAACCUCCAAUGCAUCCCACCACAUGAUGCUGCCUGAAGAGACUUGGUUUUUUG [G60A G77C A111C C123A] . Reported polymerase ribozyme fitness (log ratio)?
-3.68

Item under review: GACCAAUCUGCCCUCAGAGCUCGAGAACAUCUUCGGAUGCAGAGGAGGCAGGCUUCGGUCGCGCGAUAGCGCCAACGUCCUCAACCUCCAAUGCAUCCCACCAAAUGAUGAUGCCUGAAGAGCCUUGGUUUUUUG [G60C C104A] . Reported polymerase ribozyme fitness (log ratio)?
-2.18

Item under review: GACCAAUCUGCCCUCAGAGCACGAGAACAUCUUCGGAUGCAGAGGAGGCAGGCUUCGGUGGCGCGAUAGCGCCAACGUCCUCAACCUCCAAUGCAUCCCACCACAUGAUGAUGCCUGAAGAGCGUUGGUUUUUUG [U21A C124G] . Reported polymerase ribozyme fitness (log ratio)?
0.373

Item under review: GACCAAUCUGCCCUCAGAGCUCGAGAACAUCUUCGGAUGCAGAGGAGGCAGGCUUCGGUGGCGCGAUAACGCCAACGUCCUCAACCUCCAAUGCAUCCCACCACAUGAUGAUGCCUGAAGAGCUUUGGUUUUUUG [G69A C124U] . Reported polymerase ribozyme fitness (log ratio)?
-1.25

Item under review: GACCAAUGUGCCCUCAGAGCUCGAGAACAUCUUCGGAUGCAGAGGAGGCAGGCUUCGGUGGCGCGAUAGCGCGAACGUCCUCAACCUCCAGUGCAUCCCACCACAUGAUGAUGCCUGAAGAGCCUUGGUUUUUUG [C8G C73G A91G] . Reported polymerase ribozyme fitness (log ratio)?
-1.87

Item under review: GACCAAUCCGCCCUCAGAGCUCGAGAACAUCUUCGUAUGCAGAGGAGGCAGGCUUCGGUGGCGCGAUAGCGCCAACGUCCUCAACCUCCAAUGCAUCCCACCAAAUGAUGAUGCAUGAAGAGCCUUGGUUUUUUG [U9C G36U C104A C115A] . Reported polymerase ribozyme fitness (log ratio)?
-1.3

Item under review: GACCAAUCUGCCCUCAGAGCUCGAGAACAUCUUCGGAUGCAGAGGAGGCAGGCUUCGGUGGCGCGAUAGCGCCAACGUCCUCCACCUCCAAUGCAUCCCACCACAUGAUGAUGCCUGAAGGGCCUUGGUUUUUUG [A83C A121G] . Reported polymerase ribozyme fitness (log ratio)?
1.63

Item under review: GACCAAUCUGCCCUCAGAGCUCGAGAACAUCUUCGGAUGCUGAGGAGGCAGGCUUCGGUGGCGCGAUAGCGCCAACGUCCUCAACCUCCAAUGCAUCUCACCACAUGAUGAUGCCUGAAGAGCCUUGGUUUUUUG [A41U C98U] . Reported polymerase ribozyme fitness (log ratio)?
-2.83

Item under review: GACCAAUCUGCCCUCAGAGCUGGAGAACAUCUUCGGAUGGAGAGAACGCAGGCUUCGGUGGCGCGAUAGCGGCAACGUCCUCAACCUCCAAUGCAUCCCACCACAUGAUGAGGCCUGAAGAGCCUUGGUUUAUUG [C22G C40G G45A G47C C72G U112G U132A] . Reported polymerase ribozyme fitness (log ratio)?
-4.49

Item under review: GACCAAUCUGCCGUCAGAGCUCGAGAACAUCUUCGGGUGCAGAGGAGCCAGGCUUCGGUGGCGCGAUAGCGCCAACGUCCUCAACCUCCAAUGCAUCCCACCACAUGAUGAUGCCUGAAGAGCCUUGGUUUUUUG [C13G A37G G48C] . Reported polymerase ribozyme fitness (log ratio)?
-3.17

Item under review: GACCAAUCUGCCCUCAGAGCUCGAGAACAUCUUCUGAUGCAGAAGAGGCAGGCUUCGGUGGCGCGACAGCGCCAACGUCCUCAACCUCCAAUGCAUCCCACCACGUGAUGAAGCCUGAAGAGCCUUGGUUUUUUG [G35U G44A U67C A105G U112A] . Reported polymerase ribozyme fitness (log ratio)?
-6.79

Item under review: GACAAAUCUGCCCUCAGAGCUCGAGAACAUCUUCGGAUGCAGAGGAGGCAGGCUUCGGUGGCGCGAUAGCGCCAACGUCCUCAACCUCCAAUGCAUCCCACCACAUGAUGAUGCCUGAAUAGCCUUGGUUUUUUG [C4A G120U] . Reported polymerase ribozyme fitness (log ratio)?
-1.6

Item under review: GACCAAUCUGCCCUCAGAGCUCGAGAACAUCUUCGGAUGCAGAGGAGGCAGGCUUCGGUGGCGCGAUAGCGCCAACGACCUCAACCUCCAAUGCAUCCCACCACAUGAUGAUGCCUGAAGAGCGUUGGUUUUUUG [U78A C124G] . Reported polymerase ribozyme fitness (log ratio)?
1.42

Item under review: GACCAAUCUGCCCUCAGAGCUCGAGAACAUCUUCGGAUGCAGAGGUGACAGGCUUCGGUGGCGCGAUAGCGCCAACGUCCUCAACCUCCAAUGCAUCCCACCACAUGAUGAUGCCUGAAGAGCCUUGGUUUUUUG [A46U G48A] . Reported polymerase ribozyme fitness (log ratio)?
-2.28

Item under review: GACCAAGCUGCCCUCAGAGCUCGAGAACAUCUUCGGAUGCAGAGGAGGCAGGCUUCGGUGGCGCGAUAGCGCCAACGUCCUCAACCUCCAAUGCAUCCCACCACAUAAUGAUGCCUGAAGAGCCUUGGUUUUUUG [U7G G107A] . Reported polymerase ribozyme fitness (log ratio)?
-4.15
